Parameter IC50: see the listing below.
Test system: human myelomonocytic, biphenotypic leukemia MV4-11 cells
EXPERIMENT SUMMARY: Growth inhibition test (MTS) on MV4-11 cells
Assay type: cell-based
EXPERIMENTAL CONDITIONS: Homo sapiens, MV4-11, 72 hours, read-out: MV-4-11 ED50

RECORD SMILES | IC50, µM
CCn1c(N2CCNCC2)nc2c(Br)c(Br)c(Br)c(Br)c21 | 0.55
Brc1c(Br)c(Br)c2[nH]c(NCCc3ccccn3)nc2c1Br | 3.83
OCCCN1CCN(c2nc3c(Br)c(Br)c(Br)c(Br)c3[nH]2)CC1 | 3.43
Nc1cc(Br)c(Br)cc1Nc1nc2c(Br)c(Br)c(Br)c(Br)c2[nH]1 | 3.95
CNCCCN(Cc1ccccc1)c1nc2c(Br)c(Br)c(Br)c(Br)c2[nH]1 | 1.65

* * *

EXPERIMENT SUMMARY: Solubility in phosphate buffer pH 7.4
Type: physicochemical
EXPERIMENTAL CONDITIONS: aqueous buffer, kinetic from dmso stock, pH 7.4, 24 hours at 37° C., 1% DMSO
Excerpt: In general, tetrahalogenated benzimidazoles are poorly soluble compounds, what renders their chances for successful therapeutic administration in commonly used routes of administration and standard conditions. In contrast to previously published tetrabromobenzimidazoles exemplified by DMAT, certain compounds provided in the application show a markedly increase in water solubility. […]
READOUT LABEL: solubility at 24 h (µM)

COMPOUND | OPERATOR SYMBOL | ENDPOINT VALUE
Brc1c(Br)c(Br)c2[nH]c(N3CCNCC3)nc2c1Br | = | 81
CN(C)c1nc2c(Br)c(Br)c(Br)c(Br)c2[nH]1 [DMAT, reference compound] | < | 10

* * *

System: p-4EBP1 (Ser65)
EXPERIMENT SUMMARY: In vitro inhibition of protein phosphorylation, Western blot in MV4-11 cells
Assay type: cell-based, human
EXPERIMENTAL CONDITIONS: Homo sapiens, MV4-11; MV411 cells, 4 h treatment; read-out: calculated cellular IC50 for biomarker inhibition, p-4EBP1 (Ser65)
pIC50: −log10 of the molar value.

RECORD SMILES | pIC50
Brc1c(Br)c(Br)c2[nH]c(N3CCNCC3)nc2c1Br | 5.50

* * *

Parameter pIC50: see the listing below.
Tested on: human prostate adenocarcinoma PC3 cells
EXPERIMENT SUMMARY: Growth inhibition test (MTS) on PC3 cells
Type: cell-based
EXPERIMENTAL CONDITIONS: Homo sapiens, PC-3, 72 hours, read-out: PC-3 ED50
pIC50: −log10 of the molar value.
READOUT LABEL: pIC50

COMPOUND | READOUT LABEL | OPERATOR SYMBOL | ENDPOINT VALUE
CN(C)CCN(Cc1ccccc1)c1nc2c(Br)c(Br)c(Br)c(Br)c2[nH]1 | pIC50 | = | 5.05
Brc1c(Br)c(Br)c2[nH]c(NC3CCCCCCC3)nc2c1Br | pIC50 | = | 5.49
CN(C)c1nc2c(Br)c(Br)c(Br)c(Br)c2n1CC(=O)O [Compound K66, reference compound] | pIC50 | < | 5.00
CC(C)NC1CCCCC1Nc1nc2c(Br)c(Br)c(Br)c(Br)c2[nH]1 (centres unmarked) | pIC50 | = | 5.61
Brc1c(Br)c(Br)c2[nH]c(N3CCN4CCC3CC4)nc2c1Br | pIC50 | = | 5.07
NCC(O)CNc1nc2c(Br)c(Br)c(Br)c(Br)c2[nH]1 (centres unmarked) | pIC50 | = | 5.19
CCN1CCCC1CNc1nc2c(Br)c(Br)c(Br)c(Br)c2[nH]1 (centres unmarked) [Compound 265a] | pIC50 | = | 5.34
CN(C)CCCN(Cc1ccccc1)c1nc2c(Br)c(Br)c(Br)c(Br)c2[nH]1 | pIC50 | = | 5.23
Brc1cccc(Nc2nc3c(Br)c(Br)c(Br)c(Br)c3[nH]2)c1 | pIC50 | = | 5.60
Brc1c(Br)c(Br)c2c(Br)n[nH]c2c1Br [Compound K64, 3,4,5,6,7-pentabromo-1H-indazole, reference compound] | pIC50 | < | 5.00
CN1CCC(N(C)CC(Nc2nc3c(Br)c(Br)c(Br)c(Br)c3[nH]2)c2ccccc2)CC1 (centres unmarked) | pIC50 | = | 5.58
Brc1c(Br)c(Br)c2[nH]c(NC3CCCNCC3)nc2c1Br (centres unmarked) | pIC50 | = | 5.25
CCn1c(N2CCN(CCN3CCNCC3)CC2)nc2c(Br)c(Br)c(Br)c(Br)c21 | pIC50 | = | 5.80
N[C@@H]1CCCC[C@H]1Nc1nc2c(Br)c(Br)c(Br)c(Br)c2[nH]1 [Compound 304RR] | pIC50 | = | 5.50
Brc1c(Br)c(Br)c2[nH]c(N[C@H]3COC[C@@H]3N3CCCCC3)nc2c1Br | pIC50 | = | 5.32
CN(C)CC(CNc1nc2c(Br)c(Br)c(Br)c(Br)c2[nH]1)C(O)c1ccccc1 (centres unmarked) | pIC50 | = | 5.31
N[C@H]1CCCC[C@@H]1Nc1nc2c(Br)c(Br)c(Br)c(Br)c2[nH]1 [Compound 304SS] | pIC50 | = | 5.29

* * *

Parameter pIC50: see the listing below.
System: human prostate adenocarcinoma PC3 cells
EXPERIMENT SUMMARY: Growth inhibition test (MTS) on PC3 cells
Assay type: cell-based
EXPERIMENTAL CONDITIONS: Homo sapiens, PC-3, 72 hours, read-out: PC-3 ED50
pIC50: −log10 of the molar value.

COMPOUND | OPERATOR SYMBOL | pIC50
NC1CCC(Nc2nc3c(Br)c(Br)c(Br)c(Br)c3[nH]2)CC1 (stereo not shown) | = | 5.25
Nc1cc(F)c(F)cc1Nc1nc2c(Br)c(Br)c(Br)c(Br)c2[nH]1 | = | 5.60
CN(C)c1nc2c(Br)c(Br)c(Br)c(Br)c2[nH]1 [DMAT, reference compound] | < | 5.00
CCn1c(N2CCNCC2)nc2c(Br)c(Br)c(Br)c(Br)c21 | = | 5.68
CCn1c(N2CCN(CCCN3CCOCC3)CC2)nc2c(Br)c(Br)c(Br)c(Br)c21 | = | 5.44
Brc1c(Br)c(Br)c2c(nc(N3CCNCC3)n2Cc2ccccc2)c1Br | = | 5.60
Cc1nc2ccccn2c1CN1CCN(c2nc3c(Br)c(Br)c(Br)c(Br)c3[nH]2)CC1 | = | 5.05
CN1CCCC(Nc2nc3c(Br)c(Br)c(Br)c(Br)c3[nH]2)CC1 (stereo not shown) | = | 5.21
Brc1c(Br)c(Br)c2[nH]c(N3CCC(C4CCNCC4)CC3)nc2c1Br | = | 5.56
Brc1c(Br)c(Br)c2[nH]cnc2c1Br [TBI, 4,5,6,7-tetrabromo-1H-benzimidazole, reference compound] | < | 5.00
Brc1c(Br)c(Br)c2[nH]c(NCCN3CCCCC3)nc2c1Br | = | 5.41
Brc1c(Br)c(Br)c2[nH]c(N3CCNCC3)nc2c1Br | = | 5.29
CNCCCN(Cc1ccccc1)c1nc2c(Br)c(Br)c(Br)c(Br)c2[nH]1 | = | 5.62
COc1ccc(Nc2nc3c(Br)c(Br)c(Br)c(Br)c3[nH]2)cc1OC | = | 5.08
Brc1c(Br)c(Br)c2[nH]c(Nc3ccc4ccccc4c3)nc2c1Br | = | 5.45
N=C(N)N1CCN(c2nc3c(Br)c(Br)c(Br)c(Br)c3[nH]2)CC1 | = | 5.35

* * *

Parameter log10(IC50): see the listing below.
Tested on: human myelomonocytic, biphenotypic leukemia MV4-11 cells
EXPERIMENT SUMMARY: Growth inhibition test (MTS) on MV4-11 cells
Type: cell-based
EXPERIMENTAL CONDITIONS: Homo sapiens, MV4-11, 72 hours, read-out: MV-4-11 ED50
READOUT LABEL: log10(IC50) (log10 of the value in µM)

COMPOUND | log10(IC50)
CCn1c(N2CCN(CCN3CCNCC3)CC2)nc2c(Br)c(Br)c(Br)c(Br)c21 | -0.15
N[C@@H]1CC=CC[C@H]1Nc1nc2c(Br)c(Br)c(Br)c(Br)c2[nH]1 (relative stereo) | 0.13
Brc1c(Br)c(Br)c2[nH]c(N3CCCC(CN4CCN(c5ccccn5)CC4)C3)nc2c1Br (stereo not drawn) | 0.41
NC1CCCC(Nc2nc3c(Br)c(Br)c(Br)c(Br)c3[nH]2)C1 (stereo not drawn) | 0.41
CN1CCN(C2CCN(c3nc4c(Br)c(Br)c(Br)c(Br)c4[nH]3)CC2)CC1 | 0.66
OC1CCCCC1Nc1nc2c(Br)c(Br)c(Br)c(Br)c2[nH]1 (stereo not drawn) | 0.73
N[C@H]1CCCC[C@H]1Nc1nc2c(Br)c(Br)c(Br)c(Br)c2[nH]1 (relative stereo) [Compound 304cis] | -0.48
Brc1c(Br)c(Br)c2[nH]c(N3CCC(C4CCNCC4)CC3)nc2c1Br | 0.52
OC1CCC(Nc2nc3c(Br)c(Br)c(Br)c(Br)c3[nH]2)CC1 (stereo not drawn) | 0.74
Brc1c(Br)c(Br)c2[nH]c(NC3CCNCC3)nc2c1Br | -0.17
CN(Cc1ccccc1)c1nc2c(Br)c(Br)c(Br)c(Br)c2[nH]1 | 0.97
Brc1c(Br)c(Br)c2[nH]c(N3CCCNCC3)nc2c1Br | 0.16
Brc1c(Br)c(Br)c2[nH]c(N3CCNCC3)nc2c1Br | -0.32
Brc1c(Br)c(Br)c2[nH]c(NCCCn3ccnc3)nc2c1Br | 0.54
NCCCNc1nc2c(Br)c(Br)c(Br)c(Br)c2[nH]1 | 0.01
CN(C)CCN1CCC(CNc2nc3c(Br)c(Br)c(Br)c(Br)c3[nH]2)C1 (stereo not drawn) | 0.08
Brc1c(Br)c(Br)c2[nH]c(NC3CCCCCCC3)nc2c1Br | 0.53
Brc1c(Br)c(Br)c2[nH]c(N3CCCC3)nc2c1Br | 0.89

Hello, the source for this data is patent US8604217B2, in case you need it.
